Let's go through some pKi measurements on kinase targets listed in tables 3 and 4 (Homo sapiens, UniProt Q9Y5S2) together.
Sequence (Q9Y5S2 whole entry, looked up): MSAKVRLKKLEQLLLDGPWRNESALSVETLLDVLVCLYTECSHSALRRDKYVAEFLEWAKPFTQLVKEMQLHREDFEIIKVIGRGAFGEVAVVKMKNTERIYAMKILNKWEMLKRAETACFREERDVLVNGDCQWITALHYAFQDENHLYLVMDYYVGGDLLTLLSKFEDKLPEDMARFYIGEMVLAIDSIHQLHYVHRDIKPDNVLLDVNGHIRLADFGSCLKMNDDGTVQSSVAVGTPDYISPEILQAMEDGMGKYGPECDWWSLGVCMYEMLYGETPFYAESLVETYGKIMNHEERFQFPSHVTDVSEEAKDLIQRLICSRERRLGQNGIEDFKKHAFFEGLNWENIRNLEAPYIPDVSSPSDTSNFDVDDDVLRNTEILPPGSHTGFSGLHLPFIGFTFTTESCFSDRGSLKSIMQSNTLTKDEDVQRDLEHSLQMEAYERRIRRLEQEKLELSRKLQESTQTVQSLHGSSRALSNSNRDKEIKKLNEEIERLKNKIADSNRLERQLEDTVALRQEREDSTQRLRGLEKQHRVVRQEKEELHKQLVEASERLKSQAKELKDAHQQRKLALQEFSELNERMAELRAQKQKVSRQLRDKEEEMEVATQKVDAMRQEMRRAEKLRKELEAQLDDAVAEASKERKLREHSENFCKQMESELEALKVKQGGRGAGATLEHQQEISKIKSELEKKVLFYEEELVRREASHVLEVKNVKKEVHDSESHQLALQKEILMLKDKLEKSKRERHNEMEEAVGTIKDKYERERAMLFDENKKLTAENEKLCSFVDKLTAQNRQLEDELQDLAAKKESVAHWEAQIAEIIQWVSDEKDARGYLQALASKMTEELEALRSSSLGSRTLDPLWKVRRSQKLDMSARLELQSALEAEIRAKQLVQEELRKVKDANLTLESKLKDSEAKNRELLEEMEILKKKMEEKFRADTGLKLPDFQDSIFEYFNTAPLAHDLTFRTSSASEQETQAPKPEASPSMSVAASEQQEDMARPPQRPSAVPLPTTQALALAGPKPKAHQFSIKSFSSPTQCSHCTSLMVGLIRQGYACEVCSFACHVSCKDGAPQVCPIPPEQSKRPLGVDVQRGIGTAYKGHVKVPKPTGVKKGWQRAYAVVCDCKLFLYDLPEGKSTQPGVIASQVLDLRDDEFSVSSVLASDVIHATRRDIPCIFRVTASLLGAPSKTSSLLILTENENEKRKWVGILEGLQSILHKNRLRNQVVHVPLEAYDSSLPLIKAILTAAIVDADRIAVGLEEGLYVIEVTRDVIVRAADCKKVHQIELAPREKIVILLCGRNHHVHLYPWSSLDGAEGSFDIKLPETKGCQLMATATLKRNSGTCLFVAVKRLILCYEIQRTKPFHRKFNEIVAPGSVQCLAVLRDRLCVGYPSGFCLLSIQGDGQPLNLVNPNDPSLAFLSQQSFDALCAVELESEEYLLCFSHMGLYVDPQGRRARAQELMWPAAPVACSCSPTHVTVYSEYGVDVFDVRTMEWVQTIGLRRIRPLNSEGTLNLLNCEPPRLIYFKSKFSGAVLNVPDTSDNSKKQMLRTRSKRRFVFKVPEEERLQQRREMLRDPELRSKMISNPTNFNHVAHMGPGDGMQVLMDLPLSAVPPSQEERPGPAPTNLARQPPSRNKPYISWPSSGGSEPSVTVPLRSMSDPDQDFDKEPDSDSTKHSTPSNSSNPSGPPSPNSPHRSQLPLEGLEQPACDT
When answering, recall that pKi equals minus log10 of the concentration in mol/L, and write that number alone.

# input Field request: pKi | item: c1csc(-c2c[nH]c3nccc(N4CCC[C@@]5(CCCCN5)C4)c23)n1 [Example E150]
# output 8.94

# input Another compound to check: c1cc(-c2c[nH]c3nccc(N4CCC[C@@]5(CCCCN5)C4)c23)ncn1 [Example E117]
# output 8.86

----------
- study.target: MRCKβ (Homo sapiens (Human))
- measurement.notes: MRCKβ cellular assay (pMLC T18/S19 immunoblot, MDA-MB-231 cells with doxycycline inducible kinase domain)
- Assay type: cell-based
- condition.details: MDA-MB-231 cells, doxycycline inducible kinase domain, 60 minutes, pMLC (T18/S19); read-out: Cellular assay - MRCK-b inhibition MEAN
Can you tell me IC50 for the items I'm about to list?

# input Return reported IC50; argument: c1ccc(-c2c[nH]c3nccc(N4CCC[C@@]5(CCCCN5)C4)c23)nc1 [Example E139]
# output 107 nM

# input Consider next the molecule CCN1CCCCC12CCCN(c1ccnc3[nH]cc(-c4nccs4)c13)C2 (stereo not drawn) [Example E209] in the same way.
# output 109 nM

# input For c1csc(-c2c[nH]c3nccc(N4CCC[C@@]5(CCCCN5)C4)c23)n1 [Example E150] then?
# output 42.2 nM

# input Now the same for c1cc(-c2c[nH]c3nccc(N4CCC[C@H](NC5CC5)C4)c23)cnn1 [Example E46]
# output 1540 nM

# input Then CN[C@H]1CCCN(c2ccnc3[nH]cc(-c4nccs4)c23)C1 [Example E47] ?
# output 1530 nM

# input # iterate: CN1CCCC[C@@]12CCCN(c1ccnc3[nH]cc(-c4ccncn4)c13)C2 [Example E206]
# output 138 nM

# input Please answer likewise for c1cc(N2CCC[C@@]3(CCCCN3)C2)c2c(-c3ccsn3)c[nH]c2n1 [Example E120]
# output 13.3 nM

# input Also check c1ncc(-c2c[nH]c3nccc(N4CCC[C@@]5(CCCCN5)C4)c23)cn1 [Example E122]
# output 101 nM

# input And what about the molecule c1csc(-c2c[nH]c3nccc(O[C@@H]4CCCNC4)c23)n1 [Example E212] ?
# output 426 nM

# input What do you get for Fc1cccnc1-c1c[nH]c2nccc(N3CCCC4(CCCCN4)C3)c12 (stereo not drawn) [Example E169] ?
# output 732 nM

# input Also CCN1CCCCC12CCCN(c1ccnc3[nH]cc(-c4ncc(C)s4)c13)C2 (stereo not drawn) [Example E210] , if possible.
# output 701 nM

# input Another: c1cc(N2CCCC3(CCCCN3)C2)c2c(-c3ncsn3)c[nH]c2n1 (stereo not drawn) [Example E236]
# output 145 nM

# input And the next one, CC1(N)CCCN(c2ccnc3[nH]cc(-c4cncnc4)c23)C1 (stereo not drawn) [Example E178] ?
# output 622 nM

# input And Cc1cnc(-c2c[nH]c3nccc(N4CCC[C@@]5(CCCCN5)C4)c23)s1 [Example E146] ?
# output 150 nM

# input Follow-up entry: Cc1csnc1-c1c[nH]c2nccc(N3CCCC4(CCCCN4)C3)c12 (stereo not drawn) [Example E142]
# output 1210 nM

# input Next: Cc1cnc(-c2c[nH]c3nccc(N4CC[C@@]5(CCCCN5)C4)c23)s1 [Example E131]
# output 318 nM

# input Next up: c1cc(-c2c[nH]c3nccc(N4CCC[C@@]5(CCCCN5)C4)c23)ncn1 [Example E117]
# output 28.3 nM

# input Please give the result for c1cc(N2CCCC3(CCCCN3)C2)c2c(-c3cnsc3)c[nH]c2n1 (stereo not drawn) [Example E114] too.
# output 40.5 nM
